meta.source: the array DNA melting data of Ke et al. (doi:10.1101/2024.01.08.574731)

test: melting temperature; fluorescence melt of hairpins on a sequencing array, two-state fit, raised by 9.35 °C to match UV melts
cond: sodium 0.088 M
quantity: Tm (°C)
Numbers only, in °C.

GGTGCGGGAAACTGCACC (((((.(....).)))))    63.1
GAGGTCCGAAAGGAGCTC (((.(((....))).)))    69.3
GTGCCGCGAAAGCGACAC (((.(((....))).)))    65.7
GAACGCGAAAGCGATTTC ((((((....)))..)))    32.3
GATGTGCGAAAGCAATC (((.(((....))))))    38.2

Give one value of Tm per listed sequence.
1. GATCTCTGGTGAGATC ((((((....))))))
2. GATCTATTTATAGATC ((((((....))))))
3. GTCCGACGAAAGTCTGAC (((.(((....))).)))
4. GTGATCGAAAGATCCAC ((((((....))).)))
5. GGATTCGAAAGAAGTCC ((((((....))).)))
6. GCTCTACGAAAGTACAGC (((.(((....))).)))
7. GTGAACGGAAACATTCAC (((((.(....).)))))

RESULT:
[52.4, 51.8, 49.1, 43.9, 36.7, 35.5, 35.4]

* * *

Please provide measured folding enthalpy for the entries that follow.
test: folding enthalpy; higher = less favourable; fluorescence melt of hairpins on a sequencing array, two-state fit
cond: sodium 0.088 M
Give bare numbers, in kcal/mol.

GCCAGACGAAAGTCAGGC (((.(((....))).)))    -32.6
GATCCTGTGAAGGATC ((((((....))))))    -35.4
GCGAGCGTTCGC ((((....))))    -14.2
GTGAACCCGAAAGGGCAC (((..(((....))))))    -15.8
GTGCAACGAAAGTTCCAC (((.(((....))).)))    -10.3

Required: folding enthalpy, one value per sequence below.
1. GTCATCGGAAACGATGGC (.(((((....))))).)
2. GACGCTGGAAACAGCGCC (.(((((....))))).)
3. GATCGTGCCGACGATC ((((((....))))))
4. GATCGAAGACTCGATC ((((((....))))))
5. GATCGAGTCGTCGATC ((((((....))))))
6. GTCAGAACGAAAGTTGAC (((..(((....))))))
7. GGTCGCGAAAGCGGTACC ((((((....)))..)))

RESULT:
1. -28.1
2. -12.4
3. -49.2
4. -30.3
5. -35.6
6. -21.5
7. -14.5

* * *

test: melting temperature; fluorescence melt of hairpins on a sequencing array, two-state fit, raised by 9.35 °C to match UV melts
cond: sodium 0.088 M
quantity: Tm
Enter the number, and then the unit.

Answered cases to consult:
GATCAGGGAACTGATC ((((((....))))))    55.5 °C
GACTCACGAAAGTGGGTC (((.(((....))).)))    57.6 °C

Provide each entry's Tm from the list below.
1. GCATTACGAAAGTAGTGC (((.(((....))).)))
2. GGCACACCGAAAGGTGCC (((..(((....))))))
3. GCCAGTACGAAAGTAGGC (((..(((....))))))

RESULT:
1: 52.4 °C; 2: 52.8 °C; 3: 43.4 °C

QUERY: Would you mind telling me what Tm value was observed for CGCGGACGTTTCCGCG ((((((....)))))) ?
RESULT: 69.2 °C

* * *

test: folding enthalpy; higher = less favourable; fluorescence melt of hairpins on a sequencing array, two-state fit
cond: sodium 0.088 M
quantity: folding enthalpy
Field note: include the unit after the figure.

GGCTACCGAAAGGTTGCC (((.(((....))).)))    -35.5 kcal/mol
GGGTTGGGAAACTAGCCC (((.(.(....).).)))    -21.4 kcal/mol
GCCGAGCGAAAGCGCTGC ((.(.((....)).).))    -12.4 kcal/mol
GGGTCCACGAAAGTGCCC (((..(((....))))))    -17.9 kcal/mol
GCAAAGCGAAAGCGATGC (((..((....))..)))    -24.4 kcal/mol
GTTGGTCGAAAGACAAAC (((.(((....))).)))    -26.5 kcal/mol

Kindly give each listed record's folding enthalpy.
1. GATCAGGGCCCTGATC ((((((....))))))
2. GCCACGCGAAAGCCTCGC ((.(.((....)).).))
3. GTATCCCGAAAGGGGTAC (((.(((....))).)))
4. GTGTACGGAAACGTGCAC (((.(((....))).)))

RESULT:
1. -58.9 kcal/mol
2. -7.67 kcal/mol
3. -38.2 kcal/mol
4. -28.3 kcal/mol

Respectfully, I request folding enthalpy for each entry included below.
1. GTAGTGGGAAACTACTAC (((((.(....).)))))
2. GCGCTCGAAAGAGACCGC ((((((....)))..)))
3. CGCGGACAGTCCGCG ((((((...))))))
4. GATCATTAAGATGATC ((((((....))))))
5. GTCCGCGAAAGCGTGGAC ((((((....)))..)))
6. GCGTTGCACGC ((((...))))
7. GACCAACCGAAAGGTGTC (((..(((....))))))

RESULT:
1: -31.7 kcal/mol; 2: -21.8 kcal/mol; 3: -32.6 kcal/mol; 4: -34.8 kcal/mol; 5: -16.9 kcal/mol; 6: -23 kcal/mol; 7: -13 kcal/mol

Return reported folding enthalpy values for all items listed beneath this line.
1. GGCCGCGGAAACGCGACC ((.((((....)))).))
2. GAACGCGGAAACGCATTC (((.(((....))).)))
3. GAGACTGGAAACAGTCCC (.(((((....))))).)
4. GAAGAACGAAAGTTTTTC (((.(((....))).)))

RESULT:
-19.7 kcal/mol
-19.9 kcal/mol
-11 kcal/mol
-28.8 kcal/mol

Provide each entry's folding enthalpy from the list below.
1. GCATCGCGAAAGCTTTGC (((..((....))..)))
2. GATCCGAGGGCGGATC ((((((....))))))

RESULT:
1: -18.6 kcal/mol; 2: -31.5 kcal/mol

State recorded folding enthalpy for all listed sequences.
1. GCCCTACGAAAGTAGGC (((.(((....))))))
2. GGGATCCCGAAAGGGCCC (((..(((....))))))

RESULT:
1. -13 kcal/mol
2. -16.4 kcal/mol

* * *

test: folding enthalpy; higher = less favourable; fluorescence melt of hairpins on a sequencing array, two-state fit
cond: sodium 0.088 M
quantity: folding enthalpy (kcal/mol)
Give bare numbers, in kcal/mol.

Worked examples follow.
CGCGGAACAGTCCGCG ((((((....))))))    -33.1
GGGGAGTCGAAAGACCCC (((..(((....))))))    -29.2

# return folding enthalpy for each item in the list
1. GAGTGCGAAAGCACGCTC ((((((....)))..)))
2. GCGAAGCGAAAGCTTGGC ((.((((....)))).))
3. GTTCCCCGAAAGGGAAAC (((.(((....))).)))

RESULT:
1: -10.9; 2: -18.1; 3: -19.3

Go through the list and state folding enthalpy for each entry.
1. GATCGGCTGCCGATC ((((((...))))))
2. GCAAGGGGAAACCCCTAC (.(.(((....))).).)
3. GGATGCGGAAACACATCC (((((.(....).)))))
4. GATCAGTTCCCTGATC ((((((....))))))

RESULT:
1: -55.3; 2: -12; 3: -44.2; 4: -32

Provide reported folding enthalpy for each item, in the same order as listed.
1. GGTTTCGAAAGAAGTACC ((((((....)))..)))
2. GCCCGTGGAAACATGGGC ((((.((....)).))))
3. GATCACACCCGTGATC ((((((....))))))

RESULT:
1: -12.7; 2: -46; 3: -35.2

* * *

test: melting temperature; fluorescence melt of hairpins on a sequencing array, two-state fit, raised by 9.35 °C to match UV melts
cond: sodium 0.088 M
quantity: Tm (°C)
Give bare numbers, in °C.

Consider the reported Tm for these sequences:
GTGGATGGAAACATCCGC (.(((((....))))).)    56.1
GTGAAAGGAAACTCTCAC ((((.((....)).))))    26.5
GCTCACGGAAACGTAAGC (((.(((....))).)))    41.8
GCTGACGAAAGTCGAAGC ((((((....)))..)))    48.5
GAGCAGCCGAAAGGCCTC (((..(((....))))))    31.7

List Tm for every entry below, keeping the order given.
1. GTTTGGGGAAACCCGAAC (((.(((....))).)))
2. GAACGCGAAAGCGTGTTC ((((((....)))..)))
3. GATCAACAGTTGATC ((((((...))))))
4. GCTCGCGAAAGCGACAGC ((((((....)))..)))
5. GTATGCGGAAACGTGTAC (((..((....))..)))

RESULT:
1: 49.3; 2: 46.6; 3: 41.7; 4: 47.5; 5: 39.4

Give Tm for each listed item.
1. GCATAGCGAAAGCAAAGC ((.(.((....)).).))
2. GGGGAAACGAAAGTTCCC (((..(((....))))))
3. GGTCTATCGAAAGATACC (((..(((....))))))
4. GGCACCGAAAGGTTTGCC ((((((....)))..)))
5. GCGGTTATCCGC ((((....))))
6. GTAACCGGAAACGGCTAC (((.(((....))).)))
7. GATCTAGCGTAGATC ((((((...))))))

RESULT:
1. 32
2. 52
3. 25.8
4. 50.6
5. 59
6. 42.9
7. 37.7

List the reported Tm of each sequence below.
1. GGAGGTGCGAAAGCATCC (((..(((....))))))
2. GGTCTTGGAAACAAGACC (((((((....)))))))
3. GCATGGGCGAAAGCCTGC (((..(((....))))))

RESULT:
1: 39.3; 2: 64.2; 3: 48.7

Look up Tm for the entries below, preserving their order.
1. GCCCCAGGAAACTAGGGC ((((.((....)).))))
2. GTCCTGCCGAAAGGCGAC (((..(((....))))))
3. GAACCCGAAAGGGAATTC ((((((....)))..)))
4. GAGTGGGCGAAAGCCCTC (((..(((....))))))
5. GAGAAGGGAAACCTTCCC (.(((((....))))).)
6. GATCGAGGATCGATC ((((((...))))))
7. GGACCCGAAAGGGGGTCC ((((((....)))..)))
8. GCTATCGAAAGATGGAGC ((((((....)))..)))

RESULT:
46.4
33.2
31.4
34
34.6
59.6
63.8
33.6
